Please provide measured growth inhibition for the entries that follow.
test: NCI Yeast Anticancer Drug Screen. Data for the sgs1 mgt1 strain (AID 161);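 also: 0% = growth of cultures given vehicle only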; conditions: S. cerevisiae sgs1 mgt1 strain, at 50.0 µM, stronger effect = higher value
About 79,000 compounds went through this panel and 15% of them were active in at least one assay; those are over-represented in the sample as a whole.
One number for each entry, in %.

A selection of reference data follows.
C(=Nc1ccccc1-c1ccccc1N=Cc1ccccc1)c1ccccc1    -1.25
CSc1cc(Cl)c(C)cc1S(=O)(=O)NC(=O)NNc1ccccn1    8.15
COC(=O)NC(=Nc1ccc(Oc2ccccc2)cc1NC=O)NC(=O)OC    -13.6

Provide growth inhibition values for the following items, in order.
1. CC(=O)Nc1ccc(/C=N/Nc2nc3ccccc3s2)cc1
2. C=C1C2CC3CCC2C(OC(=O)c2ccccc2C(=O)O)C13 (configuration not stated)

1. -5
2. 1.4

Provide growth inhibition values for the following items, in order.
1. CC(C)(S)CNCCSC(=O)c1ccccc1
2. CSCC(=O)c1ccccc1
3. CC(=O)c1ccc(N=C2c3ccccc3CN2c2ccc(C(C)=O)cc2)cc1

[23.1, 9.25, -6.75]

Provide growth inhibition values for the following items, in order.
1. OC1=CC(=S)NC2CCCCC12 (configuration not stated)
2. CC(NS(=O)(=O)c1ccccc1)C(N)=O (configuration not stated)
3. CC1C2=C(CC(C)(C)CC2=O)OC2=C1C(=O)CC(C)(C)C2
4. CCOC(=O)/C=C(/C)c1ccccc1

[45, 3.55, -7.8, 6.9]

###

Please provide measured growth inhibition for the entries that follow.
Assay: NCI Yeast Anticancer Drug Screen. Data for the mlh1 rad18 strain (AID 175)
Settings: S. cerevisiae mlh1 rad18 strain growth inhibition; at 50.0 µM; stronger effect = higher value
Method: Growth inhibition of yeast strains with defined genetic alterations is measured as a screen for potential anti-cancer activity. Selected strains with alterations in DNA damage repair or cell cycle control were exposed to compounds and growth inhibition was measured relative to vehicle treated controls. The strain used in this assay is mlh1 rad18
The panel holds about 79,000 compounds, 15% with a hit somewhere; the sample as a whole holds those more often.
Give bare numbers, in %.

CCOc1ccccc1NC(=O)CC1SC(=Nc2ccc([N+](=O)[O-])cc2)NC1=O (stereo not given)    -12.8
CCCCCCNC(C)=O    -0.55
NC(=S)NNC(=O)c1ccccc1    -2.55
CC(C)C(=O)Nc1ccc([N+](=O)[O-])cc1    -17.3

Provide growth inhibition values for the following items, in order.
1. COc1ccc(C2(C(=O)O)CC(C)=C(C)CC2C(=O)O)cc1 (stereo not given)
2. CSCNC(=O)Nc1ccccc1
3. CC(=O)Nc1ccc(Cc2ccc(Cl)cc2)cc1
4. CCCCC1=C(C)C/C(=N/Nc2ccc([N+](=O)[O-])cc2[N+](=O)[O-])C(C)C1CCCC (stereo not given)
5. OCC1OC(O)C(CO)OC1O (stereo not given)
6. Nc1nc(N)c2cc(S(=O)(=O)c3ccc(Cl)cc3)ccc2n1
7. O=C(Nc1ccccc1)OCc1cnc2ccccc2c1

1: 7; 2: 8.9; 3: -2.6; 4: 21.9; 5: -5.2; 6: 28.6; 7: -2.8

Provide growth inhibition values for the following items, in order.
1. COc1cc(N=Nc2ccc(S(=O)(=O)O)cc2)ccc1N=Nc1ccc2c(S(=O)(=O)O)cccc2c1O
2. COc1ccc(C)c(CN(C)C)c1
3. O=C(Nc1ccc([N+](=O)[O-])cc1)N(c1ccccc1)c1cc(N2CCOCC2)ccn1
4. Cc1ccc(S(=O)(=O)/N=C/[N-][n+]2cccc(C)c2)cc1

2.15
23.6
34.9
-4.2

Provide growth inhibition values for the following items, in order.
1. O=C(O)c1cc(C(=O)O)cc(S(=O)(=O)NCCO)c1
2. NC(=O)C12CC3CC(CC(Br)(C3)C1)C2
3. CCOC1OC(C(O)CO)C(O)C1O (stereo not given)
4. CCCCC(N)CSSCC(N)CCCC (stereo not given)
5. C/C(=C/c1c(C)c([N+](=O)[O-])c(C)c(C)c1[N+](=O)[O-])C(=O)O
6. CNCCC(=O)c1ccccc1
7. Cn1c(=O)c2ncn(Cc3ccccc3)c2n(C)c1=O
8. O=C(CC(=O)N(C(=O)c1ccccc1)c1ccc(Cl)cc1)N/N=C\c1cc(N=Nc2ccccc2Cl)ccc1O

5.1
-7.1
-17
-35.6
37
2.25
13.2
9.1

Provide growth inhibition values for the following items, in order.
1. CCN(CC)Cc1ccccc1COC(=O)c1cccc(Cl)c1
2. COc1cc2c(cc1OC)C1CCN3C(=O)CCC3[N+]1(C)CC2 (stereo not given)

26.1
8.7

###

assay: NCI Yeast Anticancer Drug Screen. Data for the mec2-1 strain (AID 157); conditions: S. cerevisiae mec2-1 strain, at 50.0 µM, stronger effect = higher value
Compounds without any hit were thinned out: in the full panel of roughly 79,000, 15% have a hit. Calls of active or inactive are those of the source. Cut-off read from the data, not from the text of the source: active = growth inhibition above about 70%; inactive = the rest.
ENDPOINT: growth inhibition

Cc1cc2c(C)nn(Cc3ccc(Cl)cc3)c2c(C#N)c1C    -8.85% (inactive)
CCCCC1(CC)COC2(CCCCC2)OC1    37% (inactive)

Provide growth inhibition values for the following items, in order.
1. C=C(C)c1ccccc1N
2. CCN(CC)CCn1c(C(C)(C)C)nc2ccccc21
3. CCOC(=O)C1C/C2=C(/CCCCCCCCCC2)SCCCS1 (stereo not given)
4. O=C(O)CC(c1ccccc1Cl)C(CC(=O)O)c1ccccc1Cl (stereo not given)
5. CC(C)C1CCC2(C)C(CCC3C4(C)CCCC32OC4)C1 (stereo not given)
6. NNC(=O)CCCCCCO

1. -40.4% (inactive)
2. -20.8% (inactive)
3. 5.2% (inactive)
4. -1.55% (inactive)
5. 1.35% (inactive)
6. 16.3% (inactive)

Provide growth inhibition values for the following items, in order.
1. CC1=CC(=C(C#N)C#N)c2ccccc2N1C
2. CC/C(N)=N\OC(=O)c1ccccc1
3. CC(OP(=O)(O)O)C(N)C(=O)O (stereo not given)
4. COc1ccc(N=Cc2ccc([N+](=O)[O-])cc2)cc1
5. O=C(Nc1ccc(Cl)cc1)c1cccnc1
6. CN(C)Cc1cc(N=Nc2ccccc2Cl)cc(CN(C)C)c1O

1: 4.35% (inactive); 2: -4.75% (inactive); 3: -34% (inactive); 4: 0.75% (inactive); 5: -10.7% (inactive); 6: -19.1% (inactive)

Provide growth inhibition values for the following items, in order.
1. Cc1ccc(S(=O)(=O)N2CCC2c2ccccc2)cc1 (stereo not given)
2. O=C1CCN2CCC(=O)c3c(Cl)ccc1c32
3. O=C(O)c1c(I)cc(I)c(O)c1I
4. CCC(c1ccc(C(C)=O)c(O)c1)C(CC)c1ccc(C(C)=O)c(O)c1 (stereo not given)

1. -3.8% (inactive)
2. 13.3% (inactive)
3. -13.5% (inactive)
4. 9.75% (inactive)

Provide growth inhibition values for the following items, in order.
1. O=c1c(-c2ccccc2)nc2ccccc2n1CC1CCCN2CCCC[C@H]12 (stereo not given in full)
2. CCCCCCCC[N+]1([O-])CC[N+](C)([O-])CC1 (stereo not given)
3. CCCCCCCCCCCCCCCCCC(=O)N/N=C/c1cc(OC)ccc1OC
4. O=C1CC(O)(c2ccccc2)C(c2ccccc2)=C1c1ccccc1 (stereo not given)

1. -10% (inactive)
2. 4.1% (inactive)
3. 0.05% (inactive)
4. 21.4% (inactive)

###

assay: NCI Yeast Anticancer Drug Screen. Data for the bub3 strain (AID 167); conditions: S. cerevisiae bub3 mutant strain, at 50.0 µM
This is part of a sample that, as a whole, favours compounds with a hit. Of some 79,000 tested, about 15% had one in any assay. Calls of active or inactive are those of the source. No stated cut-off is given here; in the data, active means growth inhibition above about 70%; inactive means the rest.
Respond using exactly one of the listed classes: active, inactive

Here are 10 compounds together with their reported answers.
CCOC(N)=C(C#N)C#N    inactive
CCc1cc2ccccc2oc1=O    inactive
CC(=O)c1ccccc1C(=O)O    inactive
O=C(O)Cc1cc(O)c(CC(=O)O)cc1O    inactive
O=C1c2ccccc2C(=O)c2c1ccc1c2N=C(c2ccc(F)cc2)CC(c2ccc(Cl)c(Cl)c2)N1 (configuration not stated)    inactive
CCC(=O)Oc1cccc(C)c1    inactive
COc1cc2c(cc1OC)[C@H](C)N1CCc3cc(OC)c(OC)cc3[C@@H]1C2    inactive
CCC(CC)C(=O)O    inactive
CNCC(OCCc1ccccc1)c1ccc(O)c(O)c1 (configuration not stated)    inactive
CCCCNC(C)=O    inactive

Write down the call the test reported for this compound. Item: NC(=O)COC(=O)c1c(Cl)nc2sccn12
inactive

Write down the call the test reported for this compound. Item: CCOC(=O)NC(=O)c1cn(CCSCCOC(=O)NCCCCCCNC(=O)OCCSCCn2cc(C(=O)NC(=O)OCC)c(=O)[nH]c2=O)c(=O)[nH]c1=O
inactive

Write down the call the test reported for this compound. Item: OCC1CCCCCCC1
inactive

Write down the call the test reported for this compound. Item: Cc1cc(C(O)CCCc2ccccc2)cc(C)c1O (configuration not stated)
inactive

Write down the call the test reported for this compound. Item: O=C(O)CC(Sc1ccccc1)c1ccccc1 (configuration not stated)
inactive

Write down the call the test reported for this compound. Item: NCCCc1ccc(C(=O)O)cc1
inactive

Write down the call the test reported for this compound. Item: CCC/C(Cl)=N/OC(=O)Nc1cc(C(F)(F)F)ccc1OC
inactive

Write down the call the test reported for this compound. Item: CC1(C)CC23C(=O)N(c4ccccc4)C(=Nc4ccccc4)NC2=CC(C#N)=C(C#N)C3O1 (configuration not stated)
inactive

Write down the call the test reported for this compound. Item: COc1cc(NC(=O)CCN2CCOCC2)c2ncccc2c1
inactive

Write down the call the test reported for this compound. Item: N#Cc1cc2c(n(C3OC(CO)C(O)C(O)C3O)c1=S)CCCCC2 (configuration not stated)
inactive

Write down the call the test reported for this compound. Item: CCC1C(OC)=CC2(CC)CC1(OC)OC2=O (configuration not stated)
inactive

Write down the call the test reported for this compound. Item: CC(=O)Oc1ccc(I)cc1C(=O)O
inactive

Write down the call the test reported for this compound. Item: COc1ccc(-n2c(N)c(C#N)c(C#N)c2-c2ccccc2)cc1
inactive

Write down the call the test reported for this compound. Item: Cc1ccc(C)c(N2C(=O)C(=O)C(c3nc4ccccc4s3)/C(=N/NC(=O)NN)C2=O)c1 (configuration not stated)
inactive

Write down the call the test reported for this compound. Item: O=C1C=C(NCCc2ccccc2)c2ccccc2C1=O
inactive

Write down the call the test reported for this compound. Item: Cn1ccc(=O)c2ccccc21
inactive

Write down the call the test reported for this compound. Item: O=C(O)C1CCCC2C(O)CCC(O)C12 (configuration not stated)
inactive

Write down the call the test reported for this compound. Item: Clc1ccnnc1Cl
inactive

Write down the call the test reported for this compound. Item: CC/C(C)=N/NS(C)(=O)=O
inactive

Write down the call the test reported for this compound. Item: Cn1ccnc1CCc1c(Cl)cccc1Cl
inactive

Write down the call the test reported for this compound. Item: CC(=O)N/N=C(\N)c1nc2c(n3nc(C)nc13)CCCC2
inactive

Write down the call the test reported for this compound. Item: OC1CSCCCSCC(O)CSCCCSC1 (configuration not stated)
inactive

Write down the call the test reported for this compound. Item: CC(C)(C)OC(=O)C(C1NC(C(=O)O)C(C)(C)S1)N1C(=O)c2ccccc2C1=O (configuration not stated)
inactive

Write down the call the test reported for this compound. Item: CCOC(=O)c1cccc2ncccc12
inactive

Write down the call the test reported for this compound. Item: CC(N)C(=O)NC(C(=O)O)C(C)C (configuration not stated)
inactive

Write down the call the test reported for this compound. Item: Nc1ccc(C(=O)N/N=C/c2ccc(Cl)cc2Cl)cc1
inactive

Write down the call the test reported for this compound. Item: On1ccc(N2CCOCC2)cc1=NC1CCCCC1
inactive

Write down the call the test reported for this compound. Item: COC(=O)c1nn(-c2ccccc2)c2nc3ccccc3c-2c1C(=O)OC
inactive

Write down the call the test reported for this compound. Item: O=C1NC(O)c2cccc(F)c2O1 (configuration not stated)
inactive
